# credit: patent US7674810B2

Here the recorded melting point is given for each entry.

SMILES_REPRESENTATION	melting point
O=S1(=O)N=C(c2nc(Cc3ccc(F)cc3)c3ccccc3c2O)c2cccc(-c3cccc(F)c3)c21	> 275 °C
CC(=O)N1CCN(S(=O)(=O)NCc2cccc3c2S(=O)(=O)N=C3C2=C(O)[C@H](C(C)(C)C)N(Cc3ccc(F)cc3)C2=O)CC1	248 to 260 °C
Cc1cc(CN2C(=O)C(C3=NS(=O)(=O)c4c(CNS(=O)(=O)N5CCNCC5)cccc43)=C(O)[C@@H]2C(C)(C)C)ccc1F.O=C(O)C(F)(F)F	135 to 151 °C

INPUT: Form field: reported melting point of `CN(Cc1cccc2c1S(=O)(=O)N=C2C1=C(O)[C@H](C(C)(C)C)N(Cc2ccc(F)cc2)C1=O)S(=O)(=O)N1CCNCC1.O=C(O)C(F)(F)F`
OUTPUT: 113 to 128 °C

INPUT: Form field: reported melting point of `CC(C)(C)[C@H]1C(O)=C(C2=NS(=O)(=O)c3ccccc32)C(=O)N1Cc1ccc(F)c(C#N)c1`
OUTPUT: 105 to 112 °C

INPUT: Form field: reported melting point of `COc1cccc2c1S(=O)(=O)N=C2C1=C(O)[C@H](C(C)(C)C)N(Cc2ccc(F)cc2)C1=O`
OUTPUT: 224 to 235 °C

INPUT: Form field: reported melting point of `CC(C)(C)[C@H]1C(O)=C(C2=NS(=O)(=O)c3c(CNCC(N)=O)cccc32)C(=O)N1Cc1ccc(F)cc1`
OUTPUT: 118 to 124 °C

INPUT: Form field: reported melting point of `CCc1cc(CN2C(=O)C(C3=NS(=O)(=O)c4ccccc43)=C(O)[C@@H]2C(C)(C)C)ccc1F`
OUTPUT: 205 to 210 °C

INPUT: Form field: reported melting point of `CC(C)(C)[C@H]1C(O)=C(C2=NS(=O)(=O)c3c(CNS(=O)(=O)N4CCOCC4)cccc32)C(=O)N1Cc1ccc(F)cc1`
OUTPUT: 118 to 129 °C

INPUT: Form field: reported melting point of `CNC(=O)COc1cccc2c1S(=O)(=O)N=C2C1=C(O)[C@H](C(C)(C)C)N(Cc2ccc(F)cc2)C1=O`
OUTPUT: > 210 °C

INPUT: Form field: reported melting point of `CS(=O)(=O)Nc1cccc2c1S(=O)(=O)N=C2c1nc(Cc2ccc(F)cc2)c2ccccc2c1O`
OUTPUT: > 275 °C

INPUT: Form field: reported melting point of `Cc1ccc(CN2C(=O)C(C3=NS(=O)(=O)c4ccccc43)=C(O)[C@@H]2C(C)(C)C)cc1`
OUTPUT: 93 to 107 °C

INPUT: Form field: reported melting point of `CC(C)C[C@@H]1C(O)=C(C2=NS(=O)(=O)c3ccccc32)C(=O)N1Cc1ccc(F)cc1`
OUTPUT: 200 °C (dec.)

INPUT: Form field: reported melting point of `Cc1nc(S(=O)(=O)NCc2cccc3c2S(=O)(=O)N=C3C2=C(O)[C@H](C(C)(C)C)N(Cc3ccc(F)cc3)C2=O)cn1C.O=C(O)C(F)(F)F`
OUTPUT: 110 to 116 °C

INPUT: Form field: reported melting point of `CC(C)(C)[C@H]1C(O)=C(C2=NS(=O)(=O)c3c(CN4CCCS4(=O)=O)cccc32)C(=O)N1Cc1ccc(F)cc1`
OUTPUT: 224 to 230 °C

INPUT: Form field: reported melting point of `CC(C)(C)[C@H]1C(O)=C(C2=NS(=O)(=O)c3c2cccc3-c2cccnc2)C(=O)N1Cc1ccc(F)cc1`
OUTPUT: > 275 °C

INPUT: Form field: reported melting point of `CC[C@H](C)[C@H]1C(O)=C(C2=NS(=O)(=O)c3ccccc32)C(=O)N1Cc1ccc(F)cc1`
OUTPUT: 155 to 160 °C
